Data provenance: patent US20260184782A1

- TARGET_OR_TEST_SYSTEM: T1, TIGIT (UniProt Q495A1 22-141, limits assumed)
- T1 construct: also called T cell immunoreceptor with Ig and ITIM domains; hTIGIT
- T1 sequence (looked up): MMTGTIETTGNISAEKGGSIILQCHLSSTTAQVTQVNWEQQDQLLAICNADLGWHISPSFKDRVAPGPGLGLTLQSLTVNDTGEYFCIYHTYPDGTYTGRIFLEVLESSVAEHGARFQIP
- ASSAY_OVERVIEW: TIGIT:CD155 blockade assay, competitor CD155
READOUT: IC50 (nM)

>  <BINDER>
TIGIT-471-038 (antibody, V domains shown, Variable domains only) VH: EVQLLESGGGLVQPGGSLRLSCAASGFTFSNYGVSWVRQAPGKGLEWVGYINPSRGYTYYADSVKGRFTISRDNSKNTLYLQMNSLRAEDTAVYYCARSYGGGFDYWGQGTLVTVSS VL: DIQMTQSPSSLSASVGDRVTITCRASQTIERRLNWYQQKPGKAPKLLIYDASSLHTGVSSRFSGSGSGTYFTLTISSLQAEDFATYYCQQSYIIPPTFGQGTKVEIK

>  <VALUE_OBSERVED>
5.9

$$$$
>  <BINDER>
TIGIT-471-011 (antibody, V domains shown, Variable domains only) VH: EVQLLESGGGLVQPGGSLRLSCAASGFTFSNYGVSWVRQAPGKGLEWVSSIDWHGWVTYYADSVKGRFTISRDNSKNTLYLQMNSLRAEDTAVYYCVKNALRFDYWGQGTLVTVSS VL: DIQMTQSPSSLSASVGDRVTITCSASQDINKYLNWYQQKPGKAPKLLIYHTSRLQSGVPSRFSGSGSGTDFTLTISSLQPEDFATYYCQQVVWRPFTFGQGTKVEIK

>  <VALUE_OBSERVED>
14.4

$$$$
>  <BINDER>
TIGIT-471-019 (antibody, V domains shown, Variable domains only) VH: EVQLLESGGGLVQPGGSLRLSCAASGFTFSNYGVSWVRQAHGKGLEWVVYINPSRGYTYYADSVKGRFSISRDNSKNTLYLQMNSLRAEDTAVYYCARSYGGGFDYWGQGTLVTVSS VL: DIQMTQSPSSLSASVGDRVTITCRASQTIERRLNWYQQKPGKAPKLLIYDASSLHTGVPSRFSGSGSGTDFTLTISSLQPEDFATYYCQQSYIIPPTFGQGTKVEIK

>  <VALUE_OBSERVED>
13.6

$$$$
>  <BINDER>
TIGIT-471-048 (antibody, V domains shown, Variable domains only) VH: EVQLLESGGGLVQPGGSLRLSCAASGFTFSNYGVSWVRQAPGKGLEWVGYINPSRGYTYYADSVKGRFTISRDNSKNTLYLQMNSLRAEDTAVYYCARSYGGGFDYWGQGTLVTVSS VL: DIQMTQSPSSLSASVGDRVTITCGASQTIERRLNWYQQKPGKAPKLLIYDASSLHTGVPSRISGSGSGTDFTLTISSLQPEHFATYYCQQSYIIPPTFGQGTKVEIK

>  <VALUE_OBSERVED>
9.8

$$$$
>  <BINDER>
TIGIT-471-035 (antibody, V domains shown, Variable domains only) VH: EVQLLESGGGLVQPGGSLRLSCAASGFTFNAYPMTWVRQAPGKGLEWVSAITGSGGSTYYADSVKGRFTISRDNSKNTLYLQMNSLRAEDTAVYYCARVWRNHLDYWGQGTLVTVSS VL: DIQMTQSPSSLSASVGDRVTITCSGDKLGHTYTSWYQQKPGKAPKLLIYRASTLASGVPSRFSGSGSGTDFTLTISSLQPEDFATYYCQQGYTLPWTFGQGTKVEIK

>  <VALUE_OBSERVED>
3.2

$$$$
>  <BINDER>
TIGIT-471-001 (antibody, V domains shown, Variable domains only) VH: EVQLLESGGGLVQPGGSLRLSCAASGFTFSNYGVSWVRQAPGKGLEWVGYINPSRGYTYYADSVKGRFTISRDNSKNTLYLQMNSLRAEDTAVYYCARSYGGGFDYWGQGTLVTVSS VL: DIQMTQSPSSLSASVGDRVTITCRASQTIERRLNWYQQKPGKAPKLLIYDASSLHTGVPSRFSGSGSGTDFTLTISSLQPEDFATYYCQQSYIIPPTFGQGTKVEIK

>  <VALUE_OBSERVED>
9.6

$$$$
